Field: TGI. Provide a value for each of the compounds that follow.
tested on: SNB-19 CNS; experiment: NCI tumour cell line growth inhibition, 48 h
Where a SMILES comes first, the peptide text is derived from it. The star is where a group is joined. Cbz = O=C(OCc1ccccc1)*; NHNH2 = NN*

For each listed entry, give its TGI.
1. O=C(OC/C=C1C=C(OC(=O)c2ccccc2)/C(=N/N(C(=O)c2ccccc2)c2ccccc2)O\1)c1ccccc1
2. C[C@]12CCNC(=O)C=C1CC[C@@H]1C2CC[C@@]2(C)C1CC[C@@H]2OC(=O)COc1ccc(N(CCCl)CCCl)cc1 (stereo not given in full)
3. Cc1nc2sccn2c1C(=O)NC(=O)Nc1ccc(Cl)cc1
4. Cn1c(=S)c2[nH]c(SCCN3C(=O)c4ccccc4C3=O)nc2n(C)c1=O
5. Cc1ccc(C)c(NC(=O)CC2SC(=Nc3ccccc3Cl)NC2=O)c1 (stereo not given)
6. CN(C)c1ccc(C(c2ccc(Cl)cc2)c2ccc(N(C)C)cc2)cc1
7. CN1CCN(Cc2ccc3c(NNC(=O)c4ccccc4)nc4cc(F)ccc4n23)CC1
8. Cc1c(N2C(=O)/C(=C/c3ccc(N(CCC#N)CCC#N)cc3)N=C2c2ccccc2)c(=O)n(-c2ccccc2)n1C

Outgoing:
1: 23 µM; 2: 50.7 µM; 3: > 100 µM; 4: > 100 µM; 5: > 100 µM; 6: > 100 µM; 7: > 100 µM; 8: > 100 µM

For each entry beneath this line, provide reported TGI.
1. C[N+]1(CCC[N+]2(C)CC3C4C=CC(CC4)C3C2)CCOCC1 (stereo not given)
2. Cc1nc2[nH]ncn2c(=O)c1CCO
3. CCOC(=O)/C(=C/c1ccc(N(CCC#N)CCC#N)cc1C)NC(=O)/C=C/c1ccccc1

Outgoing:
1. > 100 µM
2. > 10 µM
3. > 100 µM

Field: TGI. Fill in for each record below.
1. CC1(C)OC[C@@H](O)[C@H](Br)CO1
2. NC(=S)N=Nc1c(O)c2ccccc2c2ccccc12
3. CCOC(=O)CCC(NC(=O)OCc1ccccc1)C(=O)NC(CCC(=O)OCC)C(=O)NN (stereo not given) (Cbz-Glu(OEt)-Glu(OEt)-NHNH2; configuration not given here)
4. COc1ccc(Cn2cc3c(c2-c2ccccc2)CCc2cnoc2-3)cc1N

Outgoing:
1. > 100 µM
2. 12.6 µM
3. > 100 µM
4. > 100 µM

Give one value of TGI per listed compound.
1. Cc1cc(O)c(/C=N/C(=S)Nc2ccccc2)c(=O)o1
2. CCOC(=O)CN1CC(C2=C(O)CN(CC(=O)OCC)C2=O)=CC1=O
3. COc1ccc(Nc2nc3cc(N)cc(N)c3nc2-c2ccccc2)cc1OC
4. Nc1nc(N)c2cc(Sc3cccc(C(F)(F)F)c3)ccc2n1
5. COc1ccc(N2C(=O)C3c4[nH]c5ccc(F)cc5c4C4CCC(C(C)(C)C)CC4C3C2=O)cc1 (stereo not given)
6. COc1cccc2c1C(=O)OC2c1cccc2ccccc12 (stereo not given)
7. Cc1ccc(NCCN(C)C)c2c(=O)c3ccccc3sc12

Outgoing:
["> 100 µM", "> 100 µM", "> 100 µM", "18.4 µM", "> 10 µM", "> 100 µM", "6.63 µM"]

The following compounds each have a reported value; give each one's TGI.
1. COc1cccc(C2C3=C(COC3=O)N(CCO)c3cc4c(cc32)OCO4)c1 (stereo not given)
2. Cc1cc(Nc2cc(N3CCN(C)CC3)nc(Sc3ccc(NC(=O)C4CC4)cc3)n2)n[nH]1

Outgoing:
["> 10.6 µM", "> 10 µM"]

Batch request: TGI for each of the following compounds.
1. Cc1ccc(-c2nc([P+](c3ccccc3)(c3ccccc3)c3ccccc3)c(Nc3ccccc3)o2)cc1
2. O=C(NNS(=O)(=O)c1ccccc1)c1cccnc1
3. CCOC(=O)c1c(N2CCCC2)ncn(C)c1=S
4. COc1cc2ccc1OCc1cccc(n1)COc1ccc(cc1OC)C=NCCNCCNCCN=C2
5. O=[N+]([O-])/C(C(Cl)=C(Cl)Cl)=C(\N1CCCCC1)n1nnc2ccccc21

Outgoing:
["2.41 µM", "> 100 µM", "> 100 µM", "> 100 µM", "40.3 µM"]

Below are some compounds; for each one, tell me its TGI.
1. O=C(Nc1sccc1S(=O)(=O)c1ccccc1)c1ccccc1
2. Cc1ccc(-c2nc(-c3cn(C)c4ncccc34)cs2)cc1
3. CC1=C[C@H]2C[C@H](C)[C@H]3CC[C@H](C)[C@]4(C1)C(=O)C(O)=C(C)C(=O)[C@@]324
4. O=C(O)c1ccc(Nc2nc3cc(C(F)(F)F)ccc3n3cccc23)cc1
5. Cc1c(C(N)=O)sc2c1c(=O)n(Cc1ccccc1)c1nnc(-c3ccc(Br)cc3)n21

Outgoing:
> 100 µM
30.5 µM
> 100 µM
> 100 µM
17.5 µM

Incoming: # query: TGI | item Cc1ccc2[nH]c3[nH]c(=S)[nH]c(=O)c3c2c1 | system: SNB-19 CNS
Outgoing: > 100 µM
